Molecular target: T1, hCD112R mFC recombinant protein (human; murine, UniProt Q6DKI7 41-160)
T1 construct: range 41-160; expressed in 293E cells; also called hCD112R ECD mFC; hCD112R-ECD-mFC; not shown: murine IgG2a Fc domain (MX2-mFc vector)
T1 sequence (looked up): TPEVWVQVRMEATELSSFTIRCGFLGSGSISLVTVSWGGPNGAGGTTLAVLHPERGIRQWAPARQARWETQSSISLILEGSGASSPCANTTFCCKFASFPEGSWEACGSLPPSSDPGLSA
Assay: FACS competition, hCD112R mFc on CHO CD112 cells; IC50 COM701/IC50 antibody
Below, each entry is listed with its recorded Relative activity (%).

[
  {
    "BINDER": "Hu9 (antibody, IgG4, V domains shown, humanized IgG4; also called Hu-09) VH: EVQLVESGGGLVKPGGSLRLSCAASGFTFSSYHMSWVRQAPGKGLELVSAINSNDINTYYLDTVKGRFTISRDIAKNSLYLQMNSLRAEDTAVYYCARHEDYYGFAMDYWGQGTLVTVSS VL: EIVMTQSPPTLSLSPGERVTLSCKASQSVSNDVAWYQEKPGQAPRLLIYYVSHRFTGIPARFSGSGSGTDFTLTISSLQPEDFAVYYCHQAYRSPWTFGQGTKLEIK",
    "Relative activity (%)": 97.5
  },
  {
    "BINDER": "Hu49 (antibody, IgG4, V domains shown, humanized IgG4) VH: EVQLVESGGGLVKPGGSLRLSCAASGFTFSSYHMSWVRQAPGKGLELVSAINSNGINTYYLDTVKGRFTISRDNAKNSLYLQMNSLRAEDTAVYYCARHEDYYGFAMDYWGQGTLVTVSS VL: DIVMTQSPDSLAVSLGERATINCKASQSVTNDVAWYQQKPGQPPKLLIYYVSNHYTGVPDRFSGSGSGTDFTLTISSLQAEDVAVYFCQQAYRSPWTFGQGTKLEIK",
    "Relative activity (%)": 97.5
  }
]
